Tested on: symmetric dimethylation of arginine (SDMA) of PRMT5 substrates in MCF-7 cells
RUN_DESCRIPTION: PRMT5 Cell Target Engagement (TE) Assay
Assay type: cell-based
MEASUREMENT_CONTEXT: Homo sapiens, MCF7, 72 h; MCF-7 cells treated for 3 days; nuclear SDMA by high content imaging; top concentration 10000 nM
MEASUREMENT_LABEL: EC50 (nM)

C[C@]1(COc2ccc3cccnc3c2)O[C@@H](n2ccc3c(N)ncnc32)[C@H](O)[C@@H]1O [Example 98]; 272
Cc1nc(N)c2ccn([C@@H]3C[C@@H]4[C@H](Cc5ccc6cc(F)c(N)nc6c5)CC[C@]4(O)[C@H]3O)c2n1 [Example 32, 2,2,2-trifluoroacetate]; 0.8
Nc1nc2cc(C[C@@H]3CC[C@@]4(O)[C@@H]3C[C@@H](n3cc(F)c5c(N)ncnc53)[C@@H]4O)ccc2cc1F [Example 33]; 0.4
Nc1nc2cc(C[C@@H]3CC[C@@]4(O)[C@@H]3O[C@@H](n3ccc5c(N)nc(Cl)nc53)[C@@H]4O)ccc2cc1F [Example 48]; 1.7

[a] Nc1nc2cc(O[C@H]3CC[C@@]4(O)[C@@H]3O[C@@H](n3cc(F)c5c(N)ncnc53)[C@@H]4O)ccc2cc1Br [Example 56]
[b] Nc1nc2cc(C[C@@H]3OC[C@@]4(O)[C@@H]3O[C@@H](n3ccc5c(N)ncnc53)[C@@H]4O)ccc2cc1Br [Example 136]
[Q] Lower value for measured EC50? Options: a , b // output: label of the selected item
[A] b

----------
System: symmetric dimethylation of arginine (SDMA) of PRMT5 substrates in MCF-7 cells
RUN_DESCRIPTION: PRMT5 Cell Target Engagement (TE) Assay
Format: cell-based
MEASUREMENT_CONTEXT: Homo sapiens, MCF7, 72 h; MCF-7 cells treated for 3 days; nuclear SDMA by high content imaging; top concentration 10000 nM
pEC50: −log10 of the molar value.
MEASUREMENT_LABEL: pEC50

// worked examples, pEC50 included
Nc1ccc2ccc(O[C@H]3CC[C@@]4(O)[C@@H]3O[C@@H](n3ccc5c(N)ncnc53)[C@@H]4O)cc2n1 [Example 104]; 8.15
Nc1nc2cc(C[C@@H]3CC[C@@]4(O)[C@@H]3O[C@@H](n3ccc5c(N)nc(Cl)nc53)[C@@H]4O)ccc2cc1Cl [Example 47]; 8.85
C[C@]1(CCc2ccc3cc4c(nc3c2)NCC4)C[C@@H](n2ccc3c(N)ncnc32)[C@H](O)[C@@H]1O [Example 126]; 8.54

[I] Cc1ncnc2c1ccn2[C@@H]1O[C@@H]2[C@@H](Oc3ccc4cc(Cl)c(N)nc4c3)CC[C@]2(O)[C@H]1O [Example 112]
[II] C[C@]1(COc2ccc3cc(Br)c(N)nc3c2)O[C@@H](n2ccc3c(N)ncnc32)[C@H](O)[C@@H]1O [Example 13]
[Q] Could you tell me which of I and II has the lower pEC50 reading? Could you answer with the label of the item you picked?
[A] II
(II: 7.85, I: 8.40)

----------
Test system: symmetric dimethylation of arginine (SDMA) of PRMT5 substrates in MCF-7 cells
RUN_DESCRIPTION: PRMT5 Cell Target Engagement (TE) Assay
Assay type: cell-based
MEASUREMENT_CONTEXT: Homo sapiens, MCF7, 72 h; MCF-7 cells treated for 3 days; nuclear SDMA by high content imaging; top concentration 10000 nM
MEASUREMENT_LABEL: EC50 (nM)

Nc1ncnc2c1ccn2[C@@H]1O[C@@H]2[C@@H](Oc3ccc4ccc(NCC(F)(F)F)nc4c3)CC[C@]2(O)[C@H]1O; 2.1

[P] CNc1ncnc2c1c(F)cn2[C@@H]1O[C@@H]2[C@H](Cc3ccc4cc(Br)c(N)nc4c3)CC[C@]2(O)[C@H]1O
[Q] Nc1nc2cc(C[C@@H]3CC[C@@]4(O)[C@@H]3C[C@@H](n3cc(F)c5c(N)ncnc53)[C@@H]4O)ccc2cc1Br
[Q] Lab note: record which item had the higher EC50, P or Q . Pick one; state its label.
[A] P
(P: 11.1 nM, Q: 0.3 nM)

Source listed as patent US12173026B2.
